Documented Internalization % TOP across a set of binders
TESTED SYSTEM: human GLP1-R (SNAP-GLP-1R expressed in HEK293 cells) (human) (UniProt P43220)
Sequence (P43220 24-463): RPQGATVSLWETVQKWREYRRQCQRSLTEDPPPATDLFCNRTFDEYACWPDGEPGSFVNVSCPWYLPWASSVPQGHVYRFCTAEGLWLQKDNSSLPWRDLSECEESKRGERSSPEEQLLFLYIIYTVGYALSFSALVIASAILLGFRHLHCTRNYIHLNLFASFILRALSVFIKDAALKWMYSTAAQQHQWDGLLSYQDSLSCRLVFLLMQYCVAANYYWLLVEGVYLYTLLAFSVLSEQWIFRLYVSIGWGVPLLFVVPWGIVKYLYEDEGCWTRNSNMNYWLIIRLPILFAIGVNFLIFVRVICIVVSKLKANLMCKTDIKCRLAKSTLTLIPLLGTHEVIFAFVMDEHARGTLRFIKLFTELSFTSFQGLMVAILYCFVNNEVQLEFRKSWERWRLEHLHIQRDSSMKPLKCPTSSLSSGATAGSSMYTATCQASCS
ASSAY PROCEDURE: cell-based or functional assay
Number in %, nothing else.

Example entries and their recorded answers appear below.
Inquiry: Return Internalization % TOP for the following binder: YXQGTFTSDFSKXLDKKAQXAFIEWLLAGGPSSGEPPPSGE (synthetic construct; SITE 2: note = 2-Aminoisobutyric Acid; SITE 13: note = alpha-methyl-leucine; SITE 17: note = Lysine is chemically modified through conjugation of the epsilon-amino group of the Lysine side chain with (2-[2-(2-Amino-ethoxy)-ethoxy]-acetyl)-(gamma-Glu)-CO-(CH2) 18-CO2H; SITE 20: n) [Example 21]
Reply text: 72.5

Inquiry: For the binder YXQGTFTSDFSKXLDKKAQXAFIEYLLEXGPSSGAPPPGGS (synthetic construct; SITE 2: note = 2-Aminoisobutyric Acid; SITE 13: note = alpha-methyl-leucine; SITE 17: note = Lysine is chemically modified through conjugation of the epsilon-amino group of the Lysine side chain with (2-[2-(2-Amino-ethoxy)-ethoxy]-acetyl)-(gamma-Glu)-CO-(CH2) 18-CO2H; SITE 20: n) [Example 43] , report Internalization % TOP.
Reply text: 68.3

Inquiry: Give Internalization % TOP for YXQGTFTSDFSXXLDKKAQXAFIEYLLAGGPSSGAPPPSGSE (synthetic construct; SITE 2: note = 2-Aminoisobutyric Acid; SITE 12: note = L-ornithine; SITE 13: note = alpha-methyl-leucine; SITE 17: note = Lysine is chemically modified through conjugation of the epsilon-amino group of the Lysine side chain with (2-[2-(2-Amino-ethoxy)-ethoxy]-acetyl)-(gamma-Glu)) [Example 90]
Reply text: 49.8

Next:
Inquiry: Give me measured Internalization % TOP, please, for this binder: YXQGTFTSDFSXXLDKKAQXAFIEYLLEXGPSSGAPPPSGS (synthetic construct; SITE 2: note = 2-Aminoisobutyric Acid; SITE 12: note = L-ornithine; SITE 13: note = alpha-methyl-leucine; SITE 17: note = Lysine is chemically modified through conjugation of the epsilon-amino group of the Lysine side chain with (2-[2-(2-Amino-ethoxy)-ethoxy]-acetyl)-(gamma-Glu)) [Example 74]
Reply text: 53.3

Inquiry: Identify measured Internalization % TOP corresponding to YXQGTFTSDFSKXLDKKAQXAFIEYLLAGGPSSGEPPPSEG (synthetic construct; SITE 2: note = 2-Aminoisobutyric Acid; SITE 13: note = alpha-methyl-leucine; SITE 17: note = Lysine is chemically modified through conjugation of the epsilon-amino group of the Lysine side chain with (2-[2-(2-Amino-ethoxy)-ethoxy]-acetyl)-(gamma-Glu)-CO-(CH2) 18-CO2H; SITE 20: n) [Example 1]
Reply text: 69.1

Inquiry: Retrieve Internalization % TOP measured for YXQGTFTSDFSKXLDKKAQXAFIEYLLAGGPSSGEPPPSSE (synthetic construct; SITE 2: note = 2-Aminoisobutyric Acid; SITE 13: note = alpha-methyl-leucine; SITE 17: note = Lysine is chemically modified through conjugation of the epsilon-amino group of the Lysine side chain with (2-[2-(2-Amino-ethoxy)-ethoxy]-acetyl)2-(gamma-Glu)-CO-(CH2 )18-CO2H; SITE 20:) [Example 5] and print it.
Reply text: 75

Inquiry: Name the recorded Internalization % TOP of the binder listed here: YXQGTFTSDFSKXLDKKAQXAFIEYLLEGGPSSGAPPPSEG (synthetic construct; SITE 2: note = 2-Aminoisobutyric Acid; SITE 13: note = alpha-methyl-leucine; SITE 17: note = Lysine is chemically modified through conjugation of the epsilon-amino group of the Lysine side chain with (2-[2-(2-Amino-ethoxy)-ethoxy]-acetyl)-(gamma-Glu)-CO-(CH2) 16-CO2H; SITE 20: n) [Example 48]
Reply text: 55.2

Inquiry: Tell me measured Internalization % TOP for YXQGTFTSDXSKXLDKKAQXAFIEYLLAGGPSSGEPPPSGE (synthetic construct; SITE 2: note = 2-Aminoisobutyric Acid; SITE 10: note = 3-(4-Pyridyl)-L-alanine; SITE 13: note = alpha-methyl-leucine; SITE 17: note = Lysine is chemically modified through conjugation of the epsilon-amino group of the Lysine side chain with (2-[2-(2-Amino-ethoxy)-ethoxy]-acetyl)) [Example 28] please.
Reply text: 76.2
